tested on: TK-10 renal; experiment: NCI-60 one-dose screen, 48 h; conditions: 10 µM unless noted
The panel holds about 83,000 compounds, 20% with a hit somewhere; the sample as a whole holds those more often. Calls of active or inactive are those of the source. How the source made its calls: active means growth percent below 10; inactive means the rest.
Outcome codes: active, inactive

COMPOUND	SYSTEM_UNDER_TEST	CATEGORY
O=C(CN1CCN(c2cc3c(cc2F)c(=O)c(C(=O)O)cn3C2CC2)CC1)Nc1cc(=O)[nH]c(=O)[nH]1	TK-10 renal	inactive
COc1ccc(C(=O)COc2ccc(/C=C3\Oc4ccc(Cl)cc4C3=O)cc2)cc1	TK-10 renal	inactive
COc1ccc(/C=N\NC(=O)c2ccncc2)cc1O	TK-10 renal	inactive
C/C(Cc1ccc(Cl)cc1)=C(\c1ccc(OCCN2CCCCCC2)cc1)c1ccc(OC(=O)Cc2ccccc2)cc1	TK-10 renal	inactive
CSc1nc2sc3c(c2c(=O)n1-c1ccc(C(C)C)cc1)CCC(=O)C3	TK-10 renal	active
COc1ccc(OCC(=O)Nc2ccc(-c3nc4ccccc4s3)cc2C)cc1	TK-10 renal	inactive
O=C(CN1CCN(c2cc3c(cc2F)c(=O)c(C(=O)O)cn3C2CC2)CC1)Nc1nc(-c2ccccc2)cs1	TK-10 renal	inactive
NS(=O)(=O)N(c1cc(C(F)(F)F)cc(C(F)(F)F)c1)C1CCN(Cc2ccc(F)cc2)CC1	TK-10 renal	inactive
O=C(O)c1ccccc1Nc1cccc(S(F)(F)(F)(F)F)c1	TK-10 renal	inactive
Cl/C(=N\Nc1ccccc1)c1ccccc1	TK-10 renal	inactive
NC(CC(=O)O)C(=O)OCc1ccccc1 (centres undefined)	TK-10 renal	inactive
Cn1c2ccccc2c2c3[nH]c(=O)[nH]c(=O)c3c3c4ccccc4n(C)c3c21	TK-10 renal	inactive
CS(CCCCN=C=S)=NC(=O)c1c(F)c(F)c(F)c(F)c1F (centres undefined)	TK-10 renal	inactive
Cn1cc(-c2nc(-c3c[nH]c4ccccc34)cs2)c2cccnc21	TK-10 renal	inactive
C(=N\Nc1ccccn1)/c1ccccn1	TK-10 renal	inactive
CCN(CC)CCCC(C)N/C(=C1\C(=O)NC(=O)\C1=C(/NC(C)CCCN(CC)CC)c1cccc(OC)c1)c1cccc(OC)c1 (centres undefined)	TK-10 renal	active
NCCN1CCN(c2nccc(-c3ccc4ccccc4c3)n2)CC1	TK-10 renal	inactive
CCCCCCCCCCCCCC1=NCCN1CCO	TK-10 renal	inactive
CC[C@@H](C)OC(=O)c1nn(C(C)=O)c2ccccc12	TK-10 renal	inactive
O=C1c2cccnc2C(=O)c2c1c(C(=O)OCCN1CCOCC1)c1ccccn21	TK-10 renal	active
N#Cc1ccc(NC(=O)Nc2ccc(Cc3ccc(NC(=O)Nc4ccc(C#N)cc4)cc3)cc2)cc1	TK-10 renal	inactive
CC1=CC(=O)CC(C)(C)[C@@]1(O)/C=C/[C@@H](C)O	TK-10 renal	inactive
Cc1ccc(S(=O)(=O)N(CCc2ccc(Cl)cc2)S(=O)(=O)c2ccc(C)cc2)cc1	TK-10 renal	inactive
OC(c1cccc(C(F)(F)F)c1)c1cnccc1NC1CCCCCC1 (centres undefined)	TK-10 renal	inactive
COc1ccc(/C=C/C(=O)c2ccc(NC(=O)c3cc4cc5ccccc5nc4s3)cc2)cc1OC	TK-10 renal	inactive
CCOC(=S)SCc1ccc(Cl)cc1	TK-10 renal	inactive
C=C1CCC2C3(C)COC(C)(C)OC3CCC2(C)C1C/C=C1/C(=O)OCC1OC(C)=O (centres undefined)	TK-10 renal	inactive
CSc1ncnc2c1ncn2C1CCCO1 (centres undefined)	TK-10 renal	inactive
CN(C)c1ccc(/C=C(\C#N)c2nc3ccccc3s2)cc1	TK-10 renal	inactive
CCCCCCCCCCCCCCCC[N+]1(CC)CCCC1	TK-10 renal	active
COc1cccc2c1C(=O)c1c(O)c3c(c(O)c1C2=O)C[C@@](O)(/C(C)=N/NC(=O)c1ccc(Cl)cc1)C[C@@H]3OC1CC(N)C(O)C(C)O1 (some centres undefined)	TK-10 renal	active
COc1ccc(C(=O)c2sc3nc4c(c(C(F)(F)F)c3c2N)CN(C(C)=O)CC4)cc1OC	TK-10 renal	inactive
O=C(Nc1nc(-c2ccccc2)cc(-c2ccc(Cl)cc2)n1)c1ccncc1	TK-10 renal	inactive
CC(C)C1=C[C@@]23CC[C@@H]4[C@](C)(CCC[C@@]4(C)C(=O)OCC#CCN4CCCC4)[C@H]2C[C@@H]1[C@H]1C(=O)OC(=O)[C@H]13	TK-10 renal	inactive
